# AC50 annotations
- assay info: blockers of HIV-1 envelope-mediated cell-cell fusion – cherry-pick, dose response (AID 652057)
- Format: functional, cell-based
The source made the active and inactive calls. The rule behind the calls is not given here.
measured metric: AC50

O=C(NC1=NCCS1)C1COc2ccccc2O1 (stereo not given) : 1.62 µM (active)
COc1ccc2ncn(-c3ccccc3)c2c1 : 11.6 µM (active)
COc1ccc(S(=O)(=O)Nc2ccc3c(c2)CC(=O)N([C@@H](C)CO)C[C@H](C)[C@H](CN(C)S(=O)(=O)c2ccccc2)O3)cc1 : 2.12 µM (active)
CN1C(=O)c2cc(NC(=O)c3cscn3)ccc2OC[C@H]2O[C@H](CC(=O)NCc3ccc(Cl)c(Cl)c3)CC[C@H]21 : 11.3 µM (active)
Fc1ccc(-n2nnnc2-c2cnc(-c3cccs3)nc2C(F)(F)F)cc1 : 9.88 µM (active)
